Biological target: T1, β-catenin (UniProt P35222 134-665, limits assumed, biotinylated in the SPR and plate assays)
T1 sequence (looked up): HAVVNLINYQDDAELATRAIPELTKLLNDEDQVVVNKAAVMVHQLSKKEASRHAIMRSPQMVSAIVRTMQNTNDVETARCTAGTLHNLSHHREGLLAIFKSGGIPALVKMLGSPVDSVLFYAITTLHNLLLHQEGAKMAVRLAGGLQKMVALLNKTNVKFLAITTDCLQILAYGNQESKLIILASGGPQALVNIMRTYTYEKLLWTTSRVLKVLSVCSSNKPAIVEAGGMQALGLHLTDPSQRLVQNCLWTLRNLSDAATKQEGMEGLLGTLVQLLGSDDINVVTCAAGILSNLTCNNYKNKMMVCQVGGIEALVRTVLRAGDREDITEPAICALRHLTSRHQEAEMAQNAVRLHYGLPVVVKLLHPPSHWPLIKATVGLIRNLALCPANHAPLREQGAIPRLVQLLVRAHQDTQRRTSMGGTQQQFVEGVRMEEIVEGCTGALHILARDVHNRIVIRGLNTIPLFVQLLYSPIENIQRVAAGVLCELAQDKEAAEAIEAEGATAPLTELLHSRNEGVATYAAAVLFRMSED
Experiment: cell-based or functional assay
Bridges are numbered along the chain shown (N, C = ends). [ ]: non-standard residue; d: D form. The star is where a group is joined. NMeW = CN[C@@H](Cc1c[nH]c2ccccc12)C(=O)O; Stearoyl = CCCCCCCCCCCCCCCCCC(=O)*; Palmitoyl = CCCCCCCCCCCCCCCC(=O)*; αMeV = CC(C)[C@](C)(N)C(=O)O; αMeS = C[C@](N)(CO)C(=O)O; GABA = NCCCC(=O)O
The reader will find reported Wnt Reporter EC50 values listed item by item below.
quantityMeasured: Wnt Reporter EC50

INSERT INTO results (binder, result) VALUES
  ('DWFLICAWKG (HELM PEPTIDE1{D.W.F.L.I.C.A.W.K.G}$PEPTIDE1,PEPTIDE1,1:R3-9:R3$$$V2.0; SMILES CC[C@H](C)[C@@H]1NC(=O)[C@H](CC(C)C)NC(=O)[C@H](Cc2ccccc2)NC(=O)[C@H](Cc2c[nH]c3ccccc23)NC(=O)[C@@H](N)CC(=O)NCCCC[C@@H](C(=O)NCC(=O)O)NC(=O)[C@H](Cc2c[nH]c3ccccc23)NC(=O)[C@H](C)NC(=O)[C@H](CS)NC1=O) [SEQ ID NO: 178]', '≤ 7.5 µM'),
  ('H-MAFLISFWG-OH [SEQ ID NO: 210]', '≤ 7.5 µM'),
  ('H-MWILISFWG-OH [SEQ ID NO: 43]', '≤ 7.5 µM'),
  ('KWFLICAWD (HELM PEPTIDE1{K.W.F.L.I.C.A.W.D}$PEPTIDE1,PEPTIDE1,1:R3-9:R3$$$V2.0; SMILES CC[C@H](C)[C@@H]1NC(=O)[C@H](CC(C)C)NC(=O)[C@H](Cc2ccccc2)NC(=O)[C@H](Cc2c[nH]c3ccccc23)NC(=O)[C@@H](N)CCCCNC(=O)C[C@@H](C(=O)O)NC(=O)[C@H](Cc2c[nH]c3ccccc23)NC(=O)[C@H](C)NC(=O)[C@H](CS)NC1=O) [SEQ ID NO: 168]', '≤ 7.5 µM'),
  ('{Stearoyl-GABA}-W[NMeW]E[αMeS]ILDEH[αMeV]QRVWG-OH [SEQ ID NO: 392]', '≤ 7.5 µM'),
  ('Palmitoyl-PQKILDEHVQRVMK-NH2 (bridge 3-7; also: K3* and E7* marked (linkage not given here)) [SEQ ID NO: 487]', '≤ 7.5 µM'),
  ('H-MWESILDEHVQRVWG-OH [SEQ ID NO: 22]', '> 30 µM'),
  ('H-MSRMWFLISFWEG-OH [SEQ ID NO: 57]', '≤ 7.5 µM'),
  ('KWFLICAWD (HELM PEPTIDE1{[ac].K.W.F.L.I.C.A.W.D}$PEPTIDE1,PEPTIDE1,2:R3-10:R3$$$V2.0; SMILES CC[C@H](C)[C@@H]1NC(=O)[C@H](CC(C)C)NC(=O)[C@H](Cc2ccccc2)NC(=O)[C@H](Cc2c[nH]c3ccccc23)NC(=O)[C@@H](NC(C)=O)CCCCNC(=O)C[C@@H](C(=O)O)NC(=O)[C@H](Cc2c[nH]c3ccccc23)NC(=O)[C@H](C)NC(=O)[C@H](CS)NC1=O) [SEQ ID NO: 169]', '≤ 7.5 µM');
